# System: EMT6 tumor-bearing model mice
# ASSAY_OVERVIEW: Biodistribution in tumor and organs of tumor-bearing mouse (Example 14)
# Assay type: in vivo, mouse (Balb/c nu/nu)
# MEASUREMENT_SETUP: 120 minutes after administration, mean
OBSERVED_PROPERTY: Blood (% ID/g)
State the answer as a number, implicitly in % ID/g.

Some entries whose results are on file:
MOLECULE: O=[N+]([O-])c1nccn1CC(CO)(CO)C[18F]
Blood (% ID/g): 0.75
--
MOLECULE: O=[N+]([O-])c1nccn1CCC(CO)(CO)C[18F]
Blood (% ID/g): 1.14
--
MOLECULE: O=[N+]([O-])c1nc(CO)cn1CC(CO)(CO)C[18F]
Blood (% ID/g): 0.25

Dear colleague, I am looking for the recorded Blood of the following molecule: O=[N+]([O-])c1nccn1CC(O)C[18F] (stereo not shown) [[^18F]FMISO, [^18F]fluoromisonidazole, reference compound]
2.26

* * *

Reported Stomach values are given for each entry in this list.
# System: EMT6 tumor-bearing model mice
# ASSAY_OVERVIEW: Biodistribution in tumor and organs of tumor-bearing mouse (Example 14)
# Assay type: in vivo, mouse (Balb/c nu/nu)
# MEASUREMENT_SETUP: 120 minutes after administration, mean
Answer shape: numeric part, then the unit.

COMPOUND: O=[N+]([O-])c1nccn1CC(O)C[18F] (stereo not shown) [[^18F]FMISO, [^18F]fluoromisonidazole, reference compound]
Stomach: 1.85 % ID/g
--
COMPOUND: O=[N+]([O-])c1nccn1CC(CO)(CO)C[18F]
Stomach: 0.88 % ID/g
--
COMPOUND: O=[N+]([O-])c1nccn1CCC(CO)(CO)C[18F]
Stomach: 1.26 % ID/g

Kindly consider the entry below.
Quick check: Stomach on EMT6 tumor-bearing model mice, item O=[N+]([O-])c1nc(CO)cn1CC(CO)(CO)C[18F] ?
0.25 % ID/g

* * *

Reported Liver values are given for each entry in this list.
# Tested on: EMT6 tumor-bearing model mice
# ASSAY_OVERVIEW: Biodistribution in tumor and organs of tumor-bearing mouse (Example 14)
# Format: in vivo, mouse (Balb/c nu/nu)
# MEASUREMENT_SETUP: 60 minutes after administration, mean

MOLECULE: O=[N+]([O-])c1nccn1CCC(CO)(CO)C[18F]
RESULT: 4.46 % ID/g
//
MOLECULE: O=[N+]([O-])c1nccn1CC(CO)(CO)C[18F]
RESULT: 3.34 % ID/g
//
MOLECULE: O=[N+]([O-])c1nccn1CC(O)C[18F] (stereo not shown) [[^18F]FMISO, [^18F]fluoromisonidazole, reference compound]
RESULT: 5.84 % ID/g

Kindly consider the entry below.
Dear colleague, I am looking for the recorded Liver of the following molecule: O=[N+]([O-])c1nc(CO)cn1CC(CO)(CO)C[18F]
1.14 % ID/g

* * *

Reported Tumor values are given for each entry in this list.
# System: EMT6 tumor-bearing model mice
# ASSAY_OVERVIEW: Biodistribution in tumor and organs of tumor-bearing mouse (Example 14)
# Assay type: in vivo, mouse (Balb/c nu/nu)
# MEASUREMENT_SETUP: 120 minutes after administration, mean
State the answer as a number, implicitly in % ID/g.

Some entries whose results are on file:
COMPOUND: O=[N+]([O-])c1nccn1CC(O)C[18F] (stereo not shown) [[^18F]FMISO, [^18F]fluoromisonidazole, reference compound]
VALUE_UNITS: % ID/g
Tumor: 4.28
--
COMPOUND: O=[N+]([O-])c1nc(CO)cn1CC(CO)(CO)C[18F]
VALUE_UNITS: % ID/g
Tumor: 0.78
--
COMPOUND: O=[N+]([O-])c1nccn1CC(CO)(CO)C[18F]
VALUE_UNITS: % ID/g
Tumor: 1.65

Kindly consider the entry below.
Dear colleague, I am looking for the recorded Tumor of the following compound: O=[N+]([O-])c1nccn1CCC(CO)(CO)C[18F]
1.93

* * *

# System: EMT6 tumor-bearing model mice
# ASSAY_OVERVIEW: Biodistribution in tumor and organs of tumor-bearing mouse (Example 14)
# Format: in vivo, mouse (Balb/c nu/nu)
# MEASUREMENT_SETUP: 120 minutes after administration, mean
OBSERVED_PROPERTY: Large intestine (% ID/g)
State the answer as a number, implicitly in % ID/g.

Some entries whose results are on file:
COMPOUND: O=[N+]([O-])c1nccn1CC(CO)(CO)C[18F]
SYSTEM: EMT6 tumor-bearing model mice
OBSERVED_PROPERTY: Large intestine
VALUE_UNITS: % ID/g
MEASURED_NUMBER: 2.37

COMPOUND: O=[N+]([O-])c1nc(CO)cn1CC(CO)(CO)C[18F]
SYSTEM: EMT6 tumor-bearing model mice
OBSERVED_PROPERTY: Large intestine
VALUE_UNITS: % ID/g
MEASURED_NUMBER: 0.88

COMPOUND: O=[N+]([O-])c1nccn1CCC(CO)(CO)C[18F]
SYSTEM: EMT6 tumor-bearing model mice
OBSERVED_PROPERTY: Large intestine
VALUE_UNITS: % ID/g
MEASURED_NUMBER: 6.89

Dear colleague, I am looking for the recorded Large intestine of the following compound: O=[N+]([O-])c1nccn1CC(O)C[18F] (stereo not shown) [[^18F]FMISO, [^18F]fluoromisonidazole, reference compound]
21.16

* * *

# Tested on: EMT6 tumor-bearing model mice
# ASSAY_OVERVIEW: Biodistribution in tumor and organs of tumor-bearing mouse (Example 14)
# Format: in vivo, mouse (Balb/c nu/nu)
# MEASUREMENT_SETUP: 120 minutes after administration, mean
OBSERVED_PROPERTY: Kidney (% ID/g)
State the answer as a number, implicitly in % ID/g.

MOLECULE: O=[N+]([O-])c1nccn1CC(CO)(CO)C[18F]
SYSTEM: EMT6 tumor-bearing model mice
MEASURED_NUMBER: 2.91
--
MOLECULE: O=[N+]([O-])c1nccn1CC(O)C[18F] (stereo not shown) [[^18F]FMISO, [^18F]fluoromisonidazole, reference compound]
SYSTEM: EMT6 tumor-bearing model mice
MEASURED_NUMBER: 3.89
--
MOLECULE: O=[N+]([O-])c1nccn1CCC(CO)(CO)C[18F]
SYSTEM: EMT6 tumor-bearing model mice
MEASURED_NUMBER: 9.20

Kindly consider the entry below.
Dear colleague, I am looking for the recorded Kidney of the following molecule: O=[N+]([O-])c1nc(CO)cn1CC(CO)(CO)C[18F]
0.82

* * *

Reported Muscle values are given for each entry in this list.
# Tested on: EMT6 tumor-bearing model mice
# ASSAY_OVERVIEW: Biodistribution in tumor and organs of tumor-bearing mouse (Example 14)
# Assay type: in vivo, mouse (Balb/c nu/nu)
# MEASUREMENT_SETUP: 120 minutes after administration, mean
State the answer as a number, implicitly in % ID/g.

COMPOUND: O=[N+]([O-])c1nccn1CC(CO)(CO)C[18F]
Muscle / % ID/g: 0.84

COMPOUND: O=[N+]([O-])c1nc(CO)cn1CC(CO)(CO)C[18F]
Muscle / % ID/g: 0.47

COMPOUND: O=[N+]([O-])c1nccn1CCC(CO)(CO)C[18F]
Muscle / % ID/g: 1.44

Dear colleague, I am looking for the recorded Muscle of the following compound: O=[N+]([O-])c1nccn1CC(O)C[18F] (stereo not shown) [[^18F]FMISO, [^18F]fluoromisonidazole, reference compound]
2.29

* * *

# Test system: EMT6 tumor-bearing model mice
# ASSAY_OVERVIEW: Biodistribution in tumor and organs of tumor-bearing mouse (Example 14)
# Type: in vivo, mouse (Balb/c nu/nu)
# MEASUREMENT_SETUP: 120 minutes after administration, mean
OBSERVED_PROPERTY: Liver

Some entries whose results are on file:
COMPOUND: O=[N+]([O-])c1nccn1CC(CO)(CO)C[18F] [Compound 1]
Liver: 4.31 % ID/g
//
COMPOUND: O=[N+]([O-])c1nccn1CCC(CO)(CO)C[18F] [Compound 3]
Liver: 2.13 % ID/g
//
COMPOUND: O=[N+]([O-])c1nc(CO)cn1CC(CO)(CO)C[18F] [Compound 2]
Liver: 0.54 % ID/g

Dear colleague, I am looking for the recorded Liver of the following compound: O=[N+]([O-])c1nccn1CC(O)C[18F] (stereo not shown) [[^18F]FMISO, [^18F]fluoromisonidazole, reference compound]
3.85 % ID/g

* * *

Reported Lung values are given for each entry in this list.
# System: EMT6 tumor-bearing model mice
# ASSAY_OVERVIEW: Biodistribution in tumor and organs of tumor-bearing mouse (Example 14)
# Format: in vivo, mouse (Balb/c nu/nu)
# MEASUREMENT_SETUP: 60 minutes after administration, mean
# Method: The biodistribution of compounds 1 to 3 and [^18F]FMISO in a tumor and each of the organs of a tumor-bearing mouse was measured. Tumor-bearing model mice used in this experiment were the same as those prepared in Example 10, and 3 or 4 cases that had attained a tumor volume of 200 to 400 mm^3 were selected from each group. […]
Answer shape: numeric part, then the unit.

Some entries whose results are on file:
COMPOUND: O=[N+]([O-])c1nccn1CC(O)C[18F] (stereo not shown) [[^18F]FMISO, [^18F]fluoromisonidazole, reference compound]
SYSTEM: EMT6 tumor-bearing model mice
Lung: 4.41 % ID/g
//
COMPOUND: O=[N+]([O-])c1nc(CO)cn1CC(CO)(CO)C[18F] [Compound 2]
SYSTEM: EMT6 tumor-bearing model mice
Lung: 0.89 % ID/g
//
COMPOUND: O=[N+]([O-])c1nccn1CC(CO)(CO)C[18F] [Compound 1]
SYSTEM: EMT6 tumor-bearing model mice
Lung: 1.96 % ID/g

Dear colleague, I am looking for the recorded Lung of the following compound: O=[N+]([O-])c1nccn1CCC(CO)(CO)C[18F] [Compound 3]
2.92 % ID/g
